Hey, just so you know, these numbers are from ChEMBL document CHEMBL3988442.

system name: AMP-activated protein kinase, AMPK (Homo sapiens) (UniProt P54646+O43741+P54619+Q9UGJ0+Q9Y478+Q13131+Q9UGI9)
measurement notes: AMP-dependent Kinase enzyme assay. An in vitro enzyme assay that detects ADP turnover that is directly proportional to AMPK activity. This uses naive AMPK that is activated during the assay with MK-8722
Assay type: functional
Design: scale not given: direction of the effect not stated beside the values
test settings: 30 µM
metric: Percent Effect (%)
Write down the numeric answer in % and omit the unit.

Worked set:
compound: COCCNS(=O)(=O)c1ccc2c(c1)CCN(C(=O)c1cncn1C)C2
units: %
measured number: -17.1
//
compound: O=C(Cn1cc(C(=O)O)ccc1=O)Nc1ccc(F)cc1Cl
units: %
measured number: 2.96
//
compound: NC(=O)C1CN(C(=O)Nc2ccccc2N2CCCCCC2)CCO1 (stereo unspecified)
units: %
measured number: -3.8
//
compound: FC1(F)CCN(Cc2cccnc2)CC12CCN(c1ccccn1)C2 (stereo unspecified)
units: %
measured number: 5.61
//
compound: CN(C)c1nc2c(c(=O)[nH]1)CCN(C(=O)c1cccc3nccnc13)C2
units: %
measured number: -1.68
//
compound: N#Cc1ccc(C2CC(=O)Nc3c2cnn3C2CCCC2)cc1 (stereo unspecified)
units: %
measured number: 0.53
//
compound: Cc1nc(C2CCCN(C(=O)c3cccc(S(C)(=O)=O)c3)C2)no1 (stereo unspecified)
units: %
measured number: 5.98
//
compound: Nc1cc(N2CCCC2c2cnccn2)ncn1 (stereo unspecified)
units: %
measured number: -1.66
//
compound: CCn1nc(CC(C)C)cc1C(=O)N1CC[C@@H](O)C1
units: %
measured number: -5.58
//
compound: COCC1CN(Cc2ccc(C)o2)Cc2ncn(CC3CC3)c21 (stereo unspecified)
units: %
measured number: -2.46

Looking for the measured Percent Effect of Cc1cnc2n(c1=O)CC(C(=O)Nc1ccccc1Cl)CS2 (stereo unspecified) , can you help?
-2.72
